B1: FCHSD1 (parent)
chain: LQEPGVFSPTPPQQFQPAGTDQVC

- Variants of: B1
- Assay Overview: protein stability index of a GFP-peptide fusion (GPS, HEK-293T) (PSI 1-6); higher = more stable;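 further: lentivirally expressed fusions sorted by FACS into six bins by GFP to DsRed ratio, PSI derived from sequencing read proportions per bin multiplied by bin number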
- Experimental Context: c terminus: a fixed tail appended
Readout Label: protein stability index
I'd appreciate a reply containing only the number, no unit.

| Residue Change | Assay Result |
| --- | --- |
| Q13N | 4.11 |

Note protein stability index for the variant shown: Q13C
4.04

Note protein stability index for the variant shown: T10K
4
